We begin with a simple list: items and their reported ratio to parent.
B1: SmN peptide, residues 219-229 (GMRPPPPGIRG) [human] / RBM5 OCRE domain (residues 451-511), wild type [human] (parent complex)
chain 1: GMRPPPPGIRG
chain 2: GAMGTKYAVPDTSTYQYDESSGYYYDPTTGLYYDPNSQYYYNSLTQQYLYWDGEKETYVPAAES

variants of: B1; experiment: NMR titration (chemical shift perturbation score); 1:10 ratio of OCRE:peptide; read off a plot

chain 1 R3A, chain 1 R10A    ~0.24
chain 1 R3E, chain 1 R10E    ~0.05
chain 1 P4A, chain 1 P6A    ~0.27
chain 1 R3E    ~0.19

Q: Which ratio to parent is listed for chain 1 R10E ?
Result: ~0.54

Q: chain 1 R10A ?
Result: ~0.67

Q: chain 1 R3A ?
Result: ~0.51
